experimental-target: Voltage-gated potassium channel subunit beta-2 (Rattus norvegicus)
assay-remarks: KvBeta positive modulators, primary screen, biochemical, NADPH fluorescence (AID 623);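 further: fluorescence intensity change per second fitted from 20 to 320 s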
condition-description: Recombinant KvBeta, NADPH fluorescence decrease slope, 10 min; at 10 µM; stronger effect = lower value
readout: NADPH fluorescence slope

>  <molecule>
N#Cc1c(N2CCOCC2)nc(-c2ccco2)c2c1CCCC2

>  <readout>
NADPH fluorescence slope

>  <measurement>
-2e-05

$$$$
>  <molecule>
Cc1cc(=O)oc(C)c1C(=O)NCC(C)C

>  <readout>
NADPH fluorescence slope

>  <measurement>
-5.9e-06

$$$$
>  <molecule>
O=C(NCc1ccccc1)/C(=N\O)c1ccccc1

>  <readout>
NADPH fluorescence slope

>  <measurement>
-1.6e-05

$$$$
>  <molecule>
CC(=O)N(C(C)=O)c1ncc2c([nH]c3ccccc32)c1C#N

>  <readout>
NADPH fluorescence slope

>  <measurement>
-2.2e-05

$$$$
>  <molecule>
CCCCCOc1ccccc1C(=O)NCCCC(=O)O

>  <readout>
NADPH fluorescence slope

>  <measurement>
-0.000126

$$$$
>  <molecule>
CC(C)Cn1c(=O)c(C2=NS(=O)(=O)c3ccccc3N2)c(O)c2ccccc21

>  <readout>
NADPH fluorescence slope

>  <measurement>
-0.000128

$$$$
>  <molecule>
COc1ccc(N2CCN(CCCNS(=O)(=O)c3c(C)noc3/C=C/N(C)C)CC2)cc1

>  <readout>
NADPH fluorescence slope

>  <measurement>
-6e-05

$$$$
>  <molecule>
Cc1oc(-c2ccccc2F)nc1CS(=O)(=O)CC(=O)NCCCN1CCc2ccccc2C1

>  <readout>
NADPH fluorescence slope

>  <measurement>
-5.3e-07

$$$$
>  <molecule>
CCN(CC)CCN1C(=O)C(O)=C(C(=O)c2cc3ccccc3o2)C1c1cccnc1 (stereo unspecified)

>  <readout>
NADPH fluorescence slope

>  <measurement>
-0.000135

$$$$
>  <molecule>
Cc1ccc(C2/C(=C(\O)c3ccc4c(c3)OCCO4)C(=O)C(=O)N2CCCN(C)C)o1 (stereo unspecified)

>  <readout>
NADPH fluorescence slope

>  <measurement>
-8.1e-06

$$$$
>  <molecule>
O=C(Oc1cc2oc(=O)c3c(c2cc1Cl)CCCC3)c1ccco1

>  <readout>
NADPH fluorescence slope

>  <measurement>
-2.3e-05

$$$$

====

assay-remarks: DUSP6 inhibitors restoring Erk phosphorylation by chemical complementation, primary imaging in DUSP6-transfected HeLa (AID 609)
condition-description: HeLa MKP-3 transfected, phospho-Erk imaging KS statistic; measured here: cell density z-score; at 10 µM; cells stimulated with TPA for 15 min
Recorded measurements of z-score, one per entry

>  <compound>
CC(C)CNC(=O)c1c(N)n(/N=C/c2cccnc2)c2nc3ccccc3nc12

>  <z-score>
1.93

$$$$
>  <compound>
CCC(C(=O)Nc1nccs1)(C(F)(F)F)C(F)(F)F

>  <z-score>
0.755

$$$$
>  <compound>
COc1ccc(OCC(O)CN2C(=O)NC(C)(C)C2=O)cc1 (stereo unspecified)

>  <z-score>
0.439

$$$$
>  <compound>
Cn1c(N2CCN(c3ccccn3)CC2)nc2c1c(=O)n(Cc1ccc(Cl)cc1)c(=O)n2C

>  <z-score>
-0.409

$$$$
>  <compound>
CCc1[nH]c(=O)c(C#N)c2c1CSC(C)(C)C2

>  <z-score>
0.402

$$$$
>  <compound>
O=C1CC(C(=O)O)c2ccccc2N1 (stereo unspecified)

>  <z-score>
0.749

$$$$
>  <compound>
COc1cc(S(=O)(=O)N2CCN(c3ccc(F)cc3)CC2)ccc1Cl

>  <z-score>
-0.486

$$$$
>  <compound>
COCCCNC(=O)c1c(N)n(/N=C/c2ccccn2)c2nc3ccccc3nc12

>  <z-score>
0.26

$$$$
>  <compound>
CCOc1ccc(C2C(C#N)=C(N)Oc3cc(C)n(CCN4CCOCC4)c(=O)c32)cc1OCC (stereo unspecified)

>  <z-score>
-0.219

$$$$
>  <compound>
CCN(CC)CCN1C(=O)C(=O)/C(=C(/O)c2ccc(OC)cc2)C1c1ccco1 (stereo unspecified)

>  <z-score>
0.167

$$$$
>  <compound>
Cc1ccc(-n2ncc3c(NCCCOC(C)C)ncnc32)c(C)c1

>  <z-score>
-1.65

$$$$
>  <compound>
CCc1cc(=O)oc2cc(C)c(CN3CCCC3)c(O)c12

>  <z-score>
-0.426

$$$$
>  <compound>
COc1cc(C2C(C(C)=O)=C(O)C(=O)N2c2ccc(Br)cn2)ccc1O (stereo unspecified)

>  <z-score>
-0.216

$$$$
>  <compound>
O=C(O)c1ccnc(C(=O)O)c1

>  <z-score>
0.403

$$$$
>  <compound>
O=C(NCC(F)(F)F)Nc1nnc(C(F)(F)F)s1

>  <z-score>
-0.948

$$$$
>  <compound>
Cc1cc(=O)oc2cc(OCC(=O)NCc3cccnc3)ccc12

>  <z-score>
-0.419

$$$$
>  <compound>
c1ccc2c(c1)[nH]c1c(N3CCN(C4CCCCC4)CC3)ncnc12

>  <z-score>
0.663

$$$$
>  <compound>
Cc1cccc(-c2nnc3n2N=C(c2ccccc2)CS3)c1

>  <z-score>
0.462

$$$$
>  <compound>
Cc1ccc(-n2ncc3c(N4CCC(C(N)=O)CC4)ncnc32)c(C)c1

>  <z-score>
-0.735

$$$$
>  <compound>
CCCSc1nc(O)c(C2OC(=O)c3c2ccc(OC)c3OC)c(=O)n1C (stereo unspecified)

>  <z-score>
0.566

$$$$
>  <compound>
CCOc1cccc(N2C(=O)CC(N(CCc3ccc(OC)c(OC)c3)C(=O)CC)C2=O)c1 (stereo unspecified)

>  <z-score>
-0.772

$$$$
>  <compound>
COc1ccc(C2C(C#N)=C(C)NC3=C2C(=O)c2ccccc23)cc1 (stereo unspecified)

>  <z-score>
1.09

$$$$
>  <compound>
Clc1ccc(-n2ncc3c(NCc4ccccn4)ncnc32)cc1

>  <z-score>
-1.8

$$$$
>  <compound>
Cc1cc(=O)oc(C)c1C(=O)n1nc(C)c2c1C[C@@H]1[C@H]2C1(C)C

>  <z-score>
0.489

$$$$
>  <compound>
Cc1cc2c(C)nc(Cc3ccccc3)nc2o1

>  <z-score>
-0.156

$$$$
>  <compound>
Cc1ccc(S(=O)(=O)NC(=O)Nc2ncc3c(n2)CC(c2ccco2)CC3=O)cc1 (stereo unspecified)

>  <z-score>
1.23

$$$$
>  <compound>
O=C(O)c1ccc(C2CCCCC2)cn1

>  <z-score>
-1.16

$$$$
>  <compound>
CN1CCc2c(n(CC(O)CN3C(=O)c4ccccc4S3(=O)=O)c3ccccc23)C1=O (stereo unspecified)

>  <z-score>
1.84

$$$$
>  <compound>
CC1(C)Cc2c(C#N)c(N3CCOCC3)nc(Cc3ccccc3)c2CO1

>  <z-score>
-0.332

$$$$
>  <compound>
Cc1ccc2cc(CNC(C)C)c(=O)[nH]c2c1

>  <z-score>
2.86

$$$$
>  <compound>
Cc1ccc(NC(=O)CSc2nnc(-c3ccco3)c(-c3ccco3)n2)cc1

>  <z-score>
-0.429

$$$$
>  <compound>
OCCN=C(c1ccccc1)C12CN3CN(CN(C3)C1)C2

>  <z-score>
0.238

$$$$
>  <compound>
CCOC(=O)c1c(CN2CCN(CCO)CC2)n(C)c2cc(Br)c(OC)cc12

>  <z-score>
-0.09

$$$$
>  <compound>
COc1ccccc1C(=O)NCC(=O)n1nc(C)cc1C

>  <z-score>
0.666

$$$$
>  <compound>
O=C(Nc1nnc(SCc2ccccc2F)s1)c1ccco1

>  <z-score>
-0.259

$$$$
>  <compound>
O=C(c1ccccc1)n1c(=S)nc2ccccn21

>  <z-score>
0.295

$$$$
>  <compound>
CCN1CCc2c(C#N)c(NCc3ccccc3)nc(N(CC)CC)c2C1

>  <z-score>
0.401

$$$$
>  <compound>
c1ccc2c(c1)CCN(c1ncnc3c1[nH]c1ccccc13)C2

>  <z-score>
0.335

$$$$
>  <compound>
COc1ccc(/C(O)=C2/C(=O)C(=O)N(Cc3ccco3)C2c2cccs2)cc1 (stereo unspecified)

>  <z-score>
1.37

$$$$
>  <compound>
COc1ccc(NC(=O)c2c(C)cc(=O)oc2C)c(OC)c1

>  <z-score>
0.599

$$$$
>  <compound>
CCSc1nnc(NC(NC(=O)c2ccco2)(C(F)(F)F)C(F)(F)F)s1

>  <z-score>
-1.05

$$$$
>  <compound>
Cc1c2c([n+]3n1CCC3)CC(C)(C)CC2=O

>  <z-score>
-0.832

$$$$
>  <compound>
CC(=O)C1=C(O)C(=O)N(c2ccc(Br)cn2)C1c1ccccc1F (stereo unspecified)

>  <z-score>
1.35

$$$$
>  <compound>
Cc1ccc(Cn2ncc3c(N4CCOCC4)ncnc32)cc1

>  <z-score>
0.711

$$$$
>  <compound>
O=C1c2ccccc2C(=O)N1c1ncccn1

>  <z-score>
-0.519

$$$$
>  <compound>
Cn1c(=O)c2c(nc(N3CCC(C(N)=O)CC3)n2CCSc2nc3ccccc3s2)n(C)c1=O

>  <z-score>
0.335

$$$$
